Experimental details: Solubility of the compound in HBSS buffer at pH 7.4 after 18 hrs by LC/MS/MS analysis
Type: physicochemical
Endpoint: solubility at 18 h (µM)
State the answer as a number, implicitly in µM.

solubility at 18 h reported for this compound `CN(C)Cc1ccc2c(c1)CCN(C(=O)c1cc3cc(Cl)ccc3n1C)C2` : 62

----------
Target desc: UniProtKB Q96P65
Sequence (Q96P65 whole entry): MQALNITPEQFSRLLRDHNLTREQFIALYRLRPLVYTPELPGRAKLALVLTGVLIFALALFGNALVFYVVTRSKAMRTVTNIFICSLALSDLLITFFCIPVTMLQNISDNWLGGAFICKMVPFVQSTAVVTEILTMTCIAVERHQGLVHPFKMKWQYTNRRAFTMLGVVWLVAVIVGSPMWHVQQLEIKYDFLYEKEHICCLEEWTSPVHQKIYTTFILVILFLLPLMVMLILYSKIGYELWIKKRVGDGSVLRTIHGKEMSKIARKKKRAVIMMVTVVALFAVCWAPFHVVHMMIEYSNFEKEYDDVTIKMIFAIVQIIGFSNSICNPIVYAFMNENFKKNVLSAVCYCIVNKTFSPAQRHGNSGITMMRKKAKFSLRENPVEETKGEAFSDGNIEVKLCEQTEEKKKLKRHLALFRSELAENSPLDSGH
Experimental details: Inhibition of human GPR103 receptor expressed in CHOK1 cells by IP-1 assay
Assay type: cell-based, CHO-K1
Endpoint: IC50 (µM)

Illustrative cases are given below, each with its answer.
CN(C)Cc1ccc2c(c1)CCN(C(=O)c1cc3cc(Cl)ncc3n1C)C2 | 0.57
CC1Cc2cc(CN(C)C)ccc2CN1C(=O)c1cc2cc(Br)ncc2n1C (racemic) | 0.71
CN(C)Cc1ccc2c(c1)CCN(C(=O)c1cc3ccncc3n1C)C2 | 2.9

a = CN(C)Cc1ccc2c(c1)CCN(C(=O)c1cc3cc(C(F)(F)F)ncc3n1C)C2
b = CC1c2ccc(CN(C)C)cc2CCN1C(=O)c1cc2cc(Br)ncc2n1C (racemic)
c = CN(C)Cc1ccc2c(c1)CCN(C(=O)c1cc3cc(Br)ncc3n1C)C2
Data request: Ranking field: IC50; order: falling. Answer by writing out the labels in the requested order.
Data returned: a, b, c
